The reported measurements were obtained from patent US20230364118A1.

# EXPERIMENT: In vitro permeability study
# Type: in vitro ADME
# CONDITION_PARAMETERS: human, Caco-2; 300 μg/mL; read-out: apparent permeability B-to-A
READOUT_LABEL: Papp B→A at 300 μg/mL

**Q:** Value lookup for Papp B→A at 300 μg/mL; key = OC[C@@H](O)[C@@H](O)[C@@H](O)CO [ribitol, (2R,3s,4S)-Pentane-1,2,3,4,5-pentol]
**A:** < 0.1 ×10⁻⁶ cm/s

---

# EXPERIMENT: Metabolic stability in liver microsomes, cytosol, hepatocytes
# Format: in vitro ADME
# CONDITION_PARAMETERS: Gottingen, minipig, liver cytosol, Cytosol
READOUT_LABEL: half-life at 10 μM (h)
Your answer is read as h, so omit the unit and give the number.

**Q:** Value lookup for half-life at 10 μM; key = `OC[C@@H](O)[C@@H](O)[C@@H](O)CO`
**A:** 3.27
